- assay-remarks: water solubility
- Assay type: physicochemical
- run-parameters: ph 7 buffer, pH 7, aqueous buffer
property-name: solubility (µg/mL)

P: CCCCC(=O)OC[C@H]1O[C@@H](n2cnc3c(N)ncnc32)[C@@H](O)[C@@H]1O
Q: CCCCCC(=O)OC[C@H]1O[C@@H](n2cnc3c(N)ncnc32)[C@@H](O)[C@@H]1O
I would appreciate it if you could say which entry, P or Q , has the lower solubility value. Pick one and reply with its label.
Q

a: CCC(=O)OC[C@H]1O[C@@H](n2cnc3c(N)ncnc32)[C@@H](O)[C@@H]1O
b: CC(C)CC(=O)OC[C@H]1O[C@@H](n2cnc3c(N)ncnc32)[C@@H](O)[C@@H]1O
I would appreciate it if you could say which entry, a or b , has the lower solubility value. Pick one and reply with its label.
a
